Assign insecticidal activity to each entry below.
tested on: Tobacco Cutworm (Spodoptera litura) Larvae; experiment: Test against tobacco cutworm (Spodoptera litura) larvae, leaf dip; format: in vivo; details: active compound concentration of 100 ppm; third instar larvae; after 7 days
One number for each entry, in %.

Use the examples below as a reference point.
Cc1cc(C(F)(C(F)(F)F)C(F)(F)F)cc(OC(F)F)c1NC(=O)c1ccc(CNC(=O)CC2CC2)c(Cl)c1 | 100
O=C(CC(F)(F)F)NCc1ccc(C(=O)Nc2c(Cl)cc(C(F)(C(F)(F)F)C(F)(F)C(F)(F)F)cc2Cl)cc1Cl (racemic) | 100
CCc1cc(C(F)(C(F)(F)F)C(F)(F)F)cc(C)c1NC(=O)c1ccc(C#N)cc1F | 100
CCc1cc(C(F)(C(F)(F)F)C(F)(F)F)cc(C)c1NC(=O)c1cc(F)c(CNC(=O)c2cccnc2Cl)cc1F | 100
CCC(=O)NCc1ccc(C(=O)Nc2c(C)cc(C(F)(C(F)(F)F)C(F)(F)F)cc2OC(F)F)cc1Cl | 100

Batch: insecticidal activity for all items listed.
1. CCc1cc(C(F)(C(F)(F)F)C(F)(F)C(F)(F)F)cc(C)c1NC(=O)c1ccc(CNC(=O)CC2CC2)c(I)c1 (stereo not drawn)
2. CCC(=O)NCc1ccc(C(=O)Nc2c(C)cc(C(F)(C(F)(F)F)C(F)(F)F)cc2C)cc1
3. CCc1cc(C(F)(C(F)(F)F)C(F)(F)F)cc(C)c1NC(=O)c1ccc(CNC(=O)CC(F)(F)F)cc1Cl

100
100
100

Batch lookup, insecticidal activity per entry.
1. CCC(=O)NCc1ccc(C(=O)Nc2c(C)cc(C(F)(C(F)(F)F)C(F)(F)F)cc2CC)c(F)c1
2. CCc1cc(C(F)(C(F)(F)F)C(F)(F)F)cc(C)c1NC(=O)c1ccc(CNC(=O)c2ccc(F)cc2)cc1
3. CCc1cc(C(F)(C(F)(F)F)C(F)(F)F)cc(C)c1NC(=O)c1ccc(CN(C)C(=O)CC(F)(F)F)cc1
4. CCC(=O)NCc1ccc(C(=O)Nc2c(C)cc(C(F)(C(F)(F)F)C(F)(F)F)cc2CC)c2ccccc12
5. CCc1cc(C(F)(C(F)(F)F)C(F)(F)C(F)(F)F)cc(C)c1NC(=O)c1ccc(CNC(=O)C2CC2)c(Br)c1 (stereo not drawn)
6. CCc1cc(C(F)(C(F)(F)F)C(F)(F)F)cc(C)c1NC(=O)c1ccc(C(C)NC(=O)CC2CC2)cc1 (stereo not drawn)
7. Cc1cc(C(F)(C(F)(F)F)C(F)(F)F)cc(C)c1NC(=O)c1ccc(CNC(=O)CC2CC2)cc1
8. CCc1cc(C(F)(C(F)(F)F)C(F)(F)F)cc(C)c1NC(=O)c1ccc(CNC(=O)c2ccccc2Cl)cc1

[100, 100, 100, 100, 100, 100, 100, 100]

----------
tested on: Lucilia cuprina 1st instar larvae; assay: whole plant or invertebrate; format: in vivo; conditions: Lucilia cuprina, 48 h, read-out: activity (percentage of larval mortality)
Answer each item with its documented mortality at 100 ppm.
Numbers only, in %.

Please review the entries below; each comes with its answer.
CCc1cc(C(F)(C(F)(F)F)C(F)(F)F)cc(C)c1NC(=O)c1ccc(-n2cncn2)c(C#N)c1 | 100
CCc1cc(C(F)(C(F)(F)F)C(F)(F)F)cc(C)c1NC(=O)c1ccc(-n2cncn2)cc1 | 100
CCc1cc(C(F)(C(F)(F)F)C(F)(F)F)cc(C)c1NC(=O)c1ccc(-n2cncn2)c(N)c1 | 100

Record lookup: for Lucilia cuprina 1st instar larvae, what mortality at 100 ppm belongs to "CCc1cc(C(F)(C(F)(F)F)C(F)(F)F)cc(C)c1NC(=O)c1ccc(CN2C(=O)c3ccccc3C2=O)cc1" ? 90
